Source: ChEMBL document CHEMBL1629530

test system: Glycine max; assay: Inhibition of soybean lipoxygenase at 100 uM by UV absorbance based assay
The source made the active and inactive calls. No cut-off for these calls is given here.
testReadout: inhibition

Would you please look over these solved cases?
compound: COc1ccccc1C1=Nc2c(O)cccc2NC(C)(c2ccccc2OC)C1 (stereo unspecified)
inhibition: 3%
//
compound: Cc1ccc(NC(=O)Oc2cccc3c2N=C(c2ccccc2)CC(C)(c2ccccc2)N3)cc1 (stereo unspecified)
inhibition: 3%
//
compound: CC1=Nc2c(O)cccc2NC(C)(C)C1
inhibition: inactive
//
compound: COc1cccc(C2=Nc3c(O)cccc3NC(C)(c3cccc(OC)c3)C2)c1 (stereo unspecified)
inhibition: 37%
//
compound: CC1(c2cccc([N+](=O)[O-])c2)CC(c2cccc([N+](=O)[O-])c2)=Nc2c(O)cccc2N1 (stereo unspecified)
inhibition: inactive

// query Endpoint output: inhibition of CC1(c2ccc(Cl)cc2)CC(c2ccc(Cl)cc2)=Nc2c(N)cccc2O1 (stereo unspecified) . Value?
// result inactive

// query Endpoint output: inhibition of `CC1=Nc2c(N)cccc2OC(C)(C)C1` . Value?
// result 98%

// query Endpoint output: inhibition of CC1(c2ccccc2)CC(c2ccccc2)=Nc2c(O)cccc2N1 (stereo unspecified) . Value?
// result 28%

// query Endpoint output: inhibition of `CC1(C)CC(c2ccccc2)=Nc2ccccc2N1` . Value?
// result 6%

// query Endpoint output: inhibition of CC1(c2ccc(Cl)cc2)CC(c2ccc(Cl)cc2)=Nc2c(O)cccc2N1 (stereo unspecified) . Value?
// result inactive

// query Endpoint output: inhibition of CC(Cc1ccc(O)c(O)c1)C(C)Cc1ccc(O)c(O)c1 (stereo unspecified) . Value?
// result 84%

====

experiment: Inhibition of AAPH-induced linoleic acid lipid peroxidation; format: physicochemical
A collection of molecules and their measured IC50
Answer with a number only, understood to be in µM.

molecule: CC1(C)CC(c2ccccc2)=Nc2ccccc2N1
testReadout: IC50
observedValue: 45

// query Endpoint output: IC50 of CC1(c2ccccc2)CC(c2ccccc2)=Nc2c(O)cccc2N1 (centres undefined) . Value?
// result 50

// query Endpoint output: IC50 of Cc1ccc(NC(=O)Oc2cccc3c2N=C(c2ccccc2)CC(C)(c2ccccc2)N3)cc1 (centres undefined) . Value?
// result 50

// query Endpoint output: IC50 of Cc1c(C)c2c(c(C)c1O)CCC(C)(C(=O)O)O2 (centres undefined) [TROLOX] . Value?
// result 63
